Biological target: UniProt:P28221
Sequence (P28221 whole entry): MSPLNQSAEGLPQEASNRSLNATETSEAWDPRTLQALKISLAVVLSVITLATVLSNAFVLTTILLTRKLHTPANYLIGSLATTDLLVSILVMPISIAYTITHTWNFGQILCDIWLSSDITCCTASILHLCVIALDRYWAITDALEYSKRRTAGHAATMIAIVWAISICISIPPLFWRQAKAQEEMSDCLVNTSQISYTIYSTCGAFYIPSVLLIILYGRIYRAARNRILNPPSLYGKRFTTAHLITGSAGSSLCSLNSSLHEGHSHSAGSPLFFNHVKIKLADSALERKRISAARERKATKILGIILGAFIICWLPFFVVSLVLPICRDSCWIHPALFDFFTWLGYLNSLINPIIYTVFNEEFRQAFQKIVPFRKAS
readout.kind: Ki (nM)

>  <record.smiles>
CN(C)CCCN1CCC(c2c[nH]c3ccc(NC(=O)c4ccc(F)cc4)cc23)CC1

>  <op>
>

>  <result.number>
1000

$$$$
>  <record.smiles>
O=C(Nc1ccc2[nH]cc(C3CCN(CCOCCOCCN4CCC(c5c[nH]c6ccc(NC(=O)c7ccc(F)cc7)cc56)CC4)CC3)c2c1)c1ccc(F)cc1

>  <op>
=

>  <result.number>
1.5

$$$$
>  <record.smiles>
O=C(Nc1ccc2[nH]cc(C3CCN(CCCN4CCC(c5c[nH]c6ccc(NC(=O)c7ccc(F)cc7)cc56)CC4)CC3)c2c1)c1ccc(F)cc1

>  <op>
=

>  <result.number>
79

$$$$
>  <record.smiles>
CN1CCC(c2c[nH]c3ccc(NC(=O)CCCCCCCCCCCCC(=O)Nc4ccc5[nH]cc(C6CCN(C)CC6)c5c4)cc23)CC1

>  <op>
=

>  <result.number>
1.7

$$$$
>  <record.smiles>
CN1CCC(c2c[nH]c3ccc(NC(=O)CCCCCCCCCCCC(=O)Nc4ccc5[nH]cc(C6CCN(C)CC6)c5c4)cc23)CC1

>  <op>
=

>  <result.number>
1.4

$$$$
